- condition set: 313.15 K; 4000 kPa; Liquid
Reported mass density values follow for various compounds

{"compound": "CCn1cc[n+](C)c1.F[B-](F)(F)F [1-ethyl-3-methylimidazolium tetrafluoroborate]", "units text": "kg/m3", "mass density": 1290}
{"compound": "CCCCCCCn1cc[n+](C)c1.O=S(=O)([N-]S(=O)(=O)C(F)(F)F)C(F)(F)F", "units text": "kg/m3", "mass density": 1335}
{"compound": "CCn1cc[n+](C)c1.O=S(=O)([N-]S(=O)(=O)C(F)(F)F)C(F)(F)F", "units text": "kg/m3", "mass density": 1506}
{"compound": "CCCCCCCCn1cc[n+](C)c1.O=S(=O)([N-]S(=O)(=O)C(F)(F)F)C(F)(F)F", "units text": "kg/m3", "mass density": 1308}

----------
- condition set: 333.15 K; 20000 kPa; Liquid
Reported mass density values follow for various molecules
property name: mass density (kg/m3)

{"molecule": "CCCCCCCn1cc[n+](C)c1.O=S(=O)([N-]S(=O)(=O)C(F)(F)F)C(F)(F)F", "value reported": 1329}
{"molecule": "CCn1cc[n+](C)c1.O=S(=O)([N-]S(=O)(=O)C(F)(F)F)C(F)(F)F", "value reported": 1498}
{"molecule": "CCCCCCCCn1cc[n+](C)c1.O=S(=O)([N-]S(=O)(=O)C(F)(F)F)C(F)(F)F", "value reported": 1302}
{"molecule": "CCn1cc[n+](C)c1.F[B-](F)(F)F [1-ethyl-3-methylimidazolium tetrafluoroborate]", "value reported": 1281}

----------
- condition set: 393.15 K; 100 kPa; Liquid
Numbers after ± are expanded uncertainties.
Reported mass density values follow for various molecules

{"molecule": "CCn1cc[n+](C)c1.O=S(=O)([N-]S(=O)(=O)C(F)(F)F)C(F)(F)F", "mass density": "1424 ± 4 kg/m3"}
{"molecule": "CCCCCCCCn1cc[n+](C)c1.O=S(=O)([N-]S(=O)(=O)C(F)(F)F)C(F)(F)F", "mass density": "1236 ± 3 kg/m3"}
{"molecule": "CCCCCCCn1cc[n+](C)c1.O=S(=O)([N-]S(=O)(=O)C(F)(F)F)C(F)(F)F", "mass density": "1261 ± 3 kg/m3"}
{"molecule": "CCn1cc[n+](C)c1.F[B-](F)(F)F [1-ethyl-3-methylimidazolium tetrafluoroborate]", "mass density": "1229 ± 2 kg/m3"}

----------
- condition set: 293.15 K; 100 kPa; Liquid

{"compound": "CCn1cc[n+](C)c1.F[B-](F)(F)F [1-ethyl-3-methylimidazolium tetrafluoroborate]", "mass density (kg/m3)": 1305}
{"compound": "CCCCCCCCn1cc[n+](C)c1.O=S(=O)([N-]S(=O)(=O)C(F)(F)F)C(F)(F)F", "mass density (kg/m3)": 1328}
{"compound": "CCn1cc[n+](C)c1.O=S(=O)([N-]S(=O)(=O)C(F)(F)F)C(F)(F)F", "mass density (kg/m3)": 1526}
{"compound": "CCCCCCCn1cc[n+](C)c1.O=S(=O)([N-]S(=O)(=O)C(F)(F)F)C(F)(F)F", "mass density (kg/m3)": 1352}

----------
- condition set: 293.15 K; 25000 kPa; Liquid

{"molecule": "CCCCCCCn1cc[n+](C)c1.O=S(=O)([N-]S(=O)(=O)C(F)(F)F)C(F)(F)F", "mass density, kg/m3": 1370}
{"molecule": "CCCCCCCCn1cc[n+](C)c1.O=S(=O)([N-]S(=O)(=O)C(F)(F)F)C(F)(F)F", "mass density, kg/m3": 1345}
{"molecule": "CCn1cc[n+](C)c1.F[B-](F)(F)F [1-ethyl-3-methylimidazolium tetrafluoroborate]", "mass density, kg/m3": 1316}
{"molecule": "CCn1cc[n+](C)c1.O=S(=O)([N-]S(=O)(=O)C(F)(F)F)C(F)(F)F", "mass density, kg/m3": 1543}

Data provenance: the NIST ThermoML archive (doi:10.1021/je700205n)
